// provenance: patent US7713966B2

Overview of recorded IC50 for various compounds
# system.name: catalytic domain of MMP-13 enzyme (Homo sapiens, UniProt P45452)

Some entries whose results are on file:
In [3]: df
Out[3]:
                                   compound  measurement_name  experimental_result
0  Nc1c(N2CCc3ccc(CNC(=O)c4nc5cc(F)c(F)cc5c(=O)[nH]4)cc3C2)c(=O)c1=O              IC50             < 0.1 µM
1  O=C1COc2ccc(CNC(=O)c3nc4c(c(=O)[nH]3)CCCC4)cc2N1              IC50             < 0.1 µM
2  Cc1csc(-c2csc3nc(C(=O)NCc4ccc5c(c4)NC(=O)CO5)[nH]c(=O)c23)n1              IC50             < 0.1 µM
3  Cc1c(CC(=O)O)sc2nc(C(=O)NCc3ccc4c(c3)NC(=O)CO4)[nH]c(=O)c12              IC50             < 0.1 µM
4  Cn1c(C(=O)NCc2ccc3c(c2)NC(=O)CO3)nc2ccccc2c1=O              IC50         0.1 to 20 µM
5  Cc1c(CO)sc2nc(C(=O)NCc3ccc4c(c3)NC(=O)CO4)[nH]c(=O)c12 [Example 20a]              IC50             < 0.1 µM

Prompt line: Look up IC50 with catalytic domain of MMP-13 enzyme (Homo sapiens, UniProt P45452) for this compound: NC(=O)[C@@H]1CCCN1c1cccc2nc(C(=O)NCc3ccc4c(c3)NC(=O)CO4)[nH]c(=O)c12
Response line: < 0.1 µM

Prompt line: Value wanted: IC50 (catalytic domain of MMP-13 enzyme (Homo sapiens, UniProt P45452)) of entry Cc1c(CC(=O)O)sc2nc(C(=O)NCc3ccc4c(c3)CN(c3c(N)c(=O)c3=O)CC4)[nH]c(=O)c12
Response line: < 0.1 µM

Prompt line: Form field - read-out: IC50; system: catalytic domain of MMP-13 enzyme (Homo sapiens, UniProt P45452); submitted item: O=C1COc2ccc(CNC(=O)c3nc4scc(-c5ccc(-c6ccccc6)cc5)c4c(=O)[nH]3)cc2N1
Response line: < 0.1 µM

Prompt line: Value wanted: IC50 (catalytic domain of MMP-13 enzyme (Homo sapiens, UniProt P45452)) of entry Cc1sc2nc(C(=O)NCc3ccc4c(c3)NC(=NO)CO4)[nH]c(=O)c2c1C
Response line: < 0.1 µM

Prompt line: Lookup: IC50 / catalytic domain of MMP-13 enzyme (Homo sapiens, UniProt P45452) / O=C1COc2cc(CNC(=O)c3nc4ccccc4c(=O)[nH]3)ccc2N1
Response line: 0.1 to 20 µM

Prompt line: Form field: IC50 recorded for C[C@@H](O)CNc1cccc2nc(C(=O)NCc3ccc4c(c3)NC(=O)CO4)[nH]c(=O)c12 with catalytic domain of MMP-13 enzyme (Homo sapiens, UniProt P45452) (enter value)
Response line: < 0.1 µM

Prompt line: What is its IC50 for catalytic domain of MMP-13 enzyme (Homo sapiens, UniProt P45452)? Entry: O=C1COc2ccc(CNC(=O)c3nc4ccc(CNC(=O)c5ccccc5)cc4c(=O)[nH]3)cc2N1
Response line: < 0.1 µM

Prompt line: API: value(readout= IC50, system= catalytic domain of MMP-13 enzyme (Homo sapiens, UniProt P45452), query= O=C1COc2ccc(CNC(=O)c3nc4sccc4c(=O)[nH]3)cc2N1 )
Response line: < 0.1 µM

Prompt line: Notebook entry, catalytic domain of MMP-13 enzyme (Homo sapiens, UniProt P45452) assay: IC50 of NC(=O)c1ccc2c(=O)[nH]c(C(=O)NCc3ccc4c(c3)NC(=O)CO4)nc2c1 = ?
Response line: 0.1 to 20 µM

Prompt line: State its IC50 on catalytic domain of MMP-13 enzyme (Homo sapiens, UniProt P45452): Cc1sc2nc(C(=O)NCc3ccc4c(c3)NC(=O)CO4)[nH]c(=O)c2c1C
Response line: < 0.1 µM

Prompt line: # get_value(readout= IC50, system= catalytic domain of MMP-13 enzyme (Homo sapiens, UniProt P45452)) for C[C@@H](Nc1cccc2nc(C(=O)NCc3ccc4c(c3)NC(=O)CO4)[nH]c(=O)c12)c1ccccc1
Response line: < 0.1 µM
